# System: SW480 colon carcinoma cells
# Measurement Protocol: Cell viability assay (CellTiter-Glo)
# Conditions: Homo sapiens, SW480, read-out: percent inhibition at 10 μM

# Compound, inhibition at 10 µM
measured = [
    ("Cc1ncc(-c2ccc3cnc(NC(=O)N4CCC(N5CCOCC5)CC4)nc3c2)o1 [Compound 1472]", "16.7%"),
    ("Cn1cc(-c2ccc3cnc(NC(=O)C4CCN(Cc5ncco5)CC4)cc3n2)cn1 [Compound 95]", "38.6%"),
    ("CC(F)(F)CN1CCC(C(=O)Nc2cc3cc(-c4cnco4)cnc3cn2)CC1 [Compound 3257]", "15%"),
    ("O=C(Nc1ncc2ccc(-c3cncs3)cc2n1)C1CCN(C(=O)CN2CCCC2)CC1 [Compound 1524]", "18.1%"),
    ("Cc1ncc(-c2cnc3cnc(NC(=O)C4CCN(C5COC5)CC4)cc3c2)s1 [Compound 4622]", "27.9%"),
    ("Cn1cc(-c2cnc3cnc(NC(=O)C4CCN(Cc5ncco5)CC4)cc3c2)cn1 [Compound 2816]", "23.2%"),
    ("O=C(Nc1cc2nc(-c3cccnc3)ccc2cn1)C1CC1 [Compound 764]", "24.7%"),
    ("CN(C)[C@H]1CC[C@H](C(=O)Nc2ncc3ccc(-c4cncs4)cc3n2)CC1 [Compound 1518]", "25.3%"),
    ("Cc1nnc(-c2ccc3cnc(NC(=O)CN4C5CCC4COC5)nc3c2)s1 [Compound 1634]", "13.7%"),
    ("Cc1nnc(-c2cc3cc(NC(=O)C4CCN(C(=O)c5ccccc5)CC4)ncc3cn2)s1 [Compound 4346]", "12.2%"),
    ("CNC(=O)c1ccc(C(=O)Nc2cc3cc(-c4cn(C)nn4)cnc3cn2)cn1 [Compound 3092]", "10.5%"),
    ("CN(CC(=O)Nc1cc2nc(-c3cnn(C)c3)ccc2cn1)C1CCC1 [Compound 56]", "35%"),
    ("CO[C@H]1CC[C@H](C(=O)Nc2cc3cc(-c4nnc(C)s4)cnc3cn2)CC1 [Compound 3425]", "29.9%"),
    ("CN(C)C1CCN(c2cc(C(=O)Nc3cc4cc(-c5cn(C)nn5)ncc4cn3)ccn2)CC1 [Compound 4003]", "50.4%"),
    ("Cc1nnc(-c2ccc3cnc(NC(=O)CN4C5CCC4CC5)nc3c2)s1 [Compound 1632]", "21.3%"),
    ("CC(C)Nc1cncc(-c2ccc3cnc(NC(=O)c4cn(C5CCN(CCF)CC5)nn4)cc3n2)n1 [Compound 863]", "27.5%"),
    ("Cn1cc(-c2cnc3cnc(NC(=O)C4CCN(S(C)(=O)=O)CC4)cc3c2)cn1 [Compound 2792]", "29%"),
    ("Cn1cncc1-c1cc2cc(NC(=O)C3CCC(F)(F)CC3)ncc2cn1 [Compound 4027]", "26.3%"),
    ("CO[C@H]1CC[C@H](C(=O)Nc2cc3cc(-c4nnc(C)s4)ncc3cn2)CC1 [Compound 4332]", "16.5%"),
    ("CN1CCCN(CC(=O)Nc2cc3nc(-c4cnn(C)c4)ccc3cn2)CC1 [Compound 105]", "38.9%"),
    ("Cc1nnc(-c2cnc3cnc(NC(=O)C4CCN(C(=O)c5ccccc5)CC4)cc3c2)s1 [Compound 3439]", "16.8%"),
    ("CN1CCN(c2cc(C(=O)Nc3cc4cc(-c5ccc(N)nc5)cnc4cn3)ccn2)CC1 [Compound 3527]", "41.8%"),
    ("CN1CCCN(CC(=O)Nc2cc3cc(-c4cnn(C)c4)ncc3cn2)CC1 [Compound 3733]", "37.3%"),
    ("CC(C)CN1CCC(CC(=O)Nc2ncc3ccc(-c4cnn(C)c4)cc3n2)C1 (stereo not shown) [Compound 1029]", "38.5%"),
    ("CN(CC(=O)Nc1cc2cc(-c3cnn(C)c3)ncc2cn1)C1CCC1 [Compound 3683]", "38.8%"),
]
